Source: patent US20210139581A1

Reported Maximal Downregulation (% CD33 remaining) by item:
ASSAYED SYSTEM: human CD33 on primary human monocyte-derived dendritic cells (human, UniProt P20138 18-364)
Sequence (P20138 18-364): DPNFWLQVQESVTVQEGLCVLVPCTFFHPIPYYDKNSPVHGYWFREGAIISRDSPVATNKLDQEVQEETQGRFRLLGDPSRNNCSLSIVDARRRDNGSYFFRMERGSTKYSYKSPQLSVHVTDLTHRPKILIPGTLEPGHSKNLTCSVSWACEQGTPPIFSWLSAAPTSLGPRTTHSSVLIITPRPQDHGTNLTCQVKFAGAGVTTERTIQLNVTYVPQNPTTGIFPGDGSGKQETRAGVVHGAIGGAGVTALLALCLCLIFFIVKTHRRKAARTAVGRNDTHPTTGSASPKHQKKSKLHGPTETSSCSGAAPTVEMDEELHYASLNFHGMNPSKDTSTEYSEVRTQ
PROTOCOL TEXT: cell-based or functional assay
Number in %, nothing else.

Sample records with Maximal Downregulation (% CD33 remaining):
BINDER: AB-H3 (antibody, V domains shown, Humanized variant of murine 2F5.1) VH: QVQLVQSGAEVKKPGASVKISCKASGYTFTDYNLHWVRQAPGQGLEWIGFIYPSNGITGYAQKFQGRATLTVDTSTSTAYMELSSLRSEDTAVYYCARSTVDYFDYWGQGTLLTVSS VL: DIQMTQSPSSLSASVGDRVTITCRASQSVSTSTYSYMHWYQQKPGKAPKLLIYYASNLESGVPSRFSGSGSGTDFTLTISSLQPEDFATYYCQHSWEIPLTFGQGTKLEIK
UNIT DESCRIPTOR: %
OBSERVED: 21.2
//
BINDER: Chimeric Ab (antibody, V domains shown, Chimeric antibody with the variable regions of murine 2F5.1; also called parental antibody; comparator antibody) VH: EVQLQQSGPELVKPGASVKISCKASGYTFTDYNLHWVKLSHGKSLEWIGFIYPSNGITGYNQKFKNKATLTVDNSSSTAYMELRSLTSEDSAVYYCARSTVDYFDYWGQGTTLTVSS VL: DIVLTQSPASLAVSLGQRATMSCRASQSVSTSTYSYMHWYQQKPGQPPKLLIKYASNLESGVPARFSGSGSGTDFTLNIHPVEEEDTATYYCQHSWEIPLTFGAGTKLELK
UNIT DESCRIPTOR: %
OBSERVED: 24.1
//
BINDER: Chimeric Ab #2 (antibody, V domains shown, Chimeric Ab with a VH-FR3 mutation that removes the predicted N-glycosylation site) VH: EVQLQQSGPELVKPGASVKISCKASGYTFTDYNLHWVKLSHGKSLEWIGFIYPSNGITGYNQKFKNKATLTVDTSSSTAYMELRSLTSEDSAVYYCARSTVDYFDYWGQGTTLTVSS VL: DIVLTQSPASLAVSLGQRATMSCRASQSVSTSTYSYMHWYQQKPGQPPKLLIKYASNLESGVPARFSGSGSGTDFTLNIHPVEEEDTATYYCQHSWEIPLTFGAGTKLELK
UNIT DESCRIPTOR: %
OBSERVED: 23.2
//
BINDER: AB-H24 (antibody, V domains shown, Humanized variant of murine 2F5.1; also called AB-24) VH: QVQLVQSGAEVKKPGASVKISCKASGYTFTDYNLHWVRQAPGQRLEWIGFIYPSNGITGYSQKFQGKATLTVDTSASTAYMELSSLRSEDTAVYYCARSTVDYFDYWGQGTTVTVSS VL: DIQMTQSPSSLSASVGDRVTITCRASQSVSTSTYSYMHWYQQKPGKAPKLLIKYASNLESGVPSRFSGSGSGTDFTLTISSLQPEDFATYYCQHSWEIPLTFGQGTKLEIK
UNIT DESCRIPTOR: %
OBSERVED: 22.2

Next, consider the following binder.
# binder AB-H64 (antibody, V domains shown, Humanized variant of murine 2F5.1; also called parental humanized antibody) VH: QVQLVQSGAEVKKPGASVKISCKASGYTFTDYNLHWVRQAPGQGLEWIGFIYPSNGITGYAQKFQGRATLTVDNSTSTAYMELSSLRSEDTAVYYCARSTVDYFDYWGQGTLLTVSS VL: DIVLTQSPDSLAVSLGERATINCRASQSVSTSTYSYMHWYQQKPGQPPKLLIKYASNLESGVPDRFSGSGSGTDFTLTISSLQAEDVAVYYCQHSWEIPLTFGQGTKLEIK ; its Maximal Downregulation (% CD33 remaining) = 22.4
